Recorded values, source ChEMBL document CHEMBL1921706.

system: Melanin-concentrating hormone receptor 1 (Homo sapiens, UniProt Q99705)
Sequence (Q99705 whole entry): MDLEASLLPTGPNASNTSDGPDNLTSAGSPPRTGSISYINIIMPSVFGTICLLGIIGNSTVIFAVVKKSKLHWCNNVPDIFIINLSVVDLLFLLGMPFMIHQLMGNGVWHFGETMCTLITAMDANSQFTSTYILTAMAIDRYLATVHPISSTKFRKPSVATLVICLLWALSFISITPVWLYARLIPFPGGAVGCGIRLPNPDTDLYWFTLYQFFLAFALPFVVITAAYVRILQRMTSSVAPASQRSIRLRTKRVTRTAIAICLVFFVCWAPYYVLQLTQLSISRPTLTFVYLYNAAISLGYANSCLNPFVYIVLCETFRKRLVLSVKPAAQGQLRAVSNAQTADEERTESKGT
experimentSummary: Displacement of [125I]-MCH from MCHR1 after 2 hrs by beta scintillation counting
pIC50: −log10 of the molar value.
measurementType: pIC50

smiles=C[C@H]1c2c([nH]c3ccc(C(F)(F)F)cc23)C[C@H]2CCN(CCN3CCOCC3=O)C[C@@H]21 measvalue=8.15

(A) C[C@H]1c2c([nH]c3ccc(C(F)(F)F)cc23)C[C@H]2CCN(CCN3CCOCC3)C[C@@H]21
(B) C[C@H]1c2c([nH]c3ccc(C(F)(F)F)cc23)C[C@H]2CCN(CCC3CCOCC3)C[C@@H]21
(C) C[C@H]1c2c([nH]c3ccc(C(F)(F)F)cc23)C[C@H]2CCN(CCCC3CCOCC3)C[C@@H]21
(D) C[C@H]1c2c([nH]c3ccc(C(F)(F)F)cc23)C[C@H]2CCN(CCN3CCCCC3)C[C@@H]21
# input Rank entries according to their pIC50, from the largest number down. # answer = labels listed in requested order
# output C, B, A, D
(C: 9.30, B: 9.05, A: 8.52, D: 7.40)

(a) C[C@H]1c2c([nH]c3ccc(C(F)(F)F)cc23)C[C@H]2CCN(CCCCC3CCOCC3)C[C@@H]21
(b) C[C@@H]1c2c([nH]c3ccc(C(F)(F)F)cc23)C[C@@H]2CCN(CCN3CCOCC3)C[C@H]21
# input Compare reported pIC50 values for a and b . Which is lower? When you have decided, please share the label of that item.
# output b

---

experimentSummary: Clearance in human hepatocytes assessed per 10^6 cells
Type: ADME, cell-based, Liver, Hepatocyte
measurementType: hepatocyte CLint

Record summary for "C[C@H]1c2c([nH]c3ccc(C(F)(F)F)cc23)C[C@H]2CCN(CCCC3CCOCC3)C[C@@H]21" : reported hepatocyte CLint = < 0.3 µL/min/1e6 cells

---

experimentSummary: AUC in rhesus monkey at 3 mg/kg, po
Assay type: ADME, organism-based, Macaca mulatta
Design: dose 3 mg/kg, route oral
measurementParameters: plasma
measurementType: AUC (ng·h/mL)
Expressed in ng·h/mL, but write only the number.

AUC recorded for this compound, "C[C@H]1c2c([nH]c3ccc(C(F)(F)F)cc23)C[C@H]2CCN(CCCC3CCOCC3)C[C@@H]21" , is 907

---

system: Melanin-concentrating hormone receptor 1 (Homo sapiens)
experimentSummary: Antagonist activity at human MCHR1 expressed in Jurkat cells co-expressing apoaequorin assessed as inhibition of MCH-induced calcium mobilization by aequorin bioluminescence assay
Type: functional, cell-based
measurementType: IC50 (nM)

compound=C[C@H]1c2c([nH]c3ccc(C(F)(F)F)cc23)C[C@H]2CCN(CCC3CCOCC3)C[C@@H]21 measurementtype=IC50 measvalue=6
compound="CC1c2c([nH]c3ccc(Cl)cc23)CC2CCN(C)CC21 (racemic)" measurementtype=IC50 measvalue=100
compound="CC1c2c([nH]c3cc(Cl)c(Cl)cc23)CC2CCN(C)CC21 (racemic)" measurementtype=IC50 measvalue=50
compound="CC1c2c([nH]c3ccccc23)CC2CCN(C)CC21 (racemic)" measurementtype=IC50 measvalue=1000

(1) C[C@H]1c2c([nH]c3ccc(C(F)(F)F)cc23)C[C@H]2CCN(CCCCC3CCOCC3)C[C@@H]21
(2) CC1c2c([nH]c3c(Cl)cccc23)CC2CCN(C)CC21 (racemic)
(3) C[C@H]1c2c([nH]c3ccc(C(F)(F)F)cc23)C[C@H]2CCN(CCN3CCCCC3)C[C@@H]21
(4) CC1c2c([nH]c3cccc(Cl)c23)CC2CCN(C)CC21 (racemic)
(5) C[C@H]1c2c([nH]c3ccc(C(F)(F)F)cc23)C[C@H]2CCN(CCN3CCOCC3)C[C@@H]21
# input Reorder: IC50, max to min. Form entry: labels listed in requested order.
# output 2, 4, 3, 1, 5
(2: 1000 nM, 4: 700 nM, 3: 100 nM, 1: 50 nM, 5: 20 nM)
